- Experimental protocol: Cytotoxicity assay (CellTiter-Glo) in KB cells
- Assay type: cell-based
- Condition parameters: human, 48 hours post drug incubation, cell viability by CellTiter-Glo, triplicate, read-out: Chromenone cytotoxicity IC50, KB
Catalogue of IC50 at 48 h values
Readout kind: IC50 at 48 h

COC(=O)C(C)(C)c1cc(=O)c2c(O)ccc(-c3ccc(O)c4c(=O)cc(C(C)(C)C(=O)OC)oc34)c2o1 [Compound 28c]: > 50 µM
O=c1cc(C2CCCO2)oc2c(-c3ccc(O)c4c(=O)cc(C5CCCO5)oc34)ccc(O)c12 (centres unmarked) [Compound 28e]: > 50 µM
COc1ccc(-c2ccc(OC)c3c(=O)c(C(C)=O)c([C@@H](OC(C)=O)C(C)C)oc23)c2oc([C@@H](OC(C)=O)C(C)C)c(C(C)=O)c(=O)c12 [Compound 48c]: > 50 µM
COc1ccc(-c2ccc(OC)c3c(=O)c(C(C)=O)c(C)oc23)c2oc(C)c(C(C)=O)c(=O)c12 [Compound 42]: > 50 µM
COC(=O)C(C)(C)c1cc(=O)c2c(OC)c(-c3ccc4oc(C(C)(C)C(=O)OC)cc(=O)c4c3OC)ccc2o1 [Compound 35c]: 41 µM
